Molecular target: T1, soluble fusion protein comprising a DEC-205 extracellular domain (comprising all ten lectin-binding domains) … (human, UniProt O60449 28-1666)
T1 construct: not shown: antibody Fc domain
T1 sequence (O60449 28-1666 K1321N/Y1391H): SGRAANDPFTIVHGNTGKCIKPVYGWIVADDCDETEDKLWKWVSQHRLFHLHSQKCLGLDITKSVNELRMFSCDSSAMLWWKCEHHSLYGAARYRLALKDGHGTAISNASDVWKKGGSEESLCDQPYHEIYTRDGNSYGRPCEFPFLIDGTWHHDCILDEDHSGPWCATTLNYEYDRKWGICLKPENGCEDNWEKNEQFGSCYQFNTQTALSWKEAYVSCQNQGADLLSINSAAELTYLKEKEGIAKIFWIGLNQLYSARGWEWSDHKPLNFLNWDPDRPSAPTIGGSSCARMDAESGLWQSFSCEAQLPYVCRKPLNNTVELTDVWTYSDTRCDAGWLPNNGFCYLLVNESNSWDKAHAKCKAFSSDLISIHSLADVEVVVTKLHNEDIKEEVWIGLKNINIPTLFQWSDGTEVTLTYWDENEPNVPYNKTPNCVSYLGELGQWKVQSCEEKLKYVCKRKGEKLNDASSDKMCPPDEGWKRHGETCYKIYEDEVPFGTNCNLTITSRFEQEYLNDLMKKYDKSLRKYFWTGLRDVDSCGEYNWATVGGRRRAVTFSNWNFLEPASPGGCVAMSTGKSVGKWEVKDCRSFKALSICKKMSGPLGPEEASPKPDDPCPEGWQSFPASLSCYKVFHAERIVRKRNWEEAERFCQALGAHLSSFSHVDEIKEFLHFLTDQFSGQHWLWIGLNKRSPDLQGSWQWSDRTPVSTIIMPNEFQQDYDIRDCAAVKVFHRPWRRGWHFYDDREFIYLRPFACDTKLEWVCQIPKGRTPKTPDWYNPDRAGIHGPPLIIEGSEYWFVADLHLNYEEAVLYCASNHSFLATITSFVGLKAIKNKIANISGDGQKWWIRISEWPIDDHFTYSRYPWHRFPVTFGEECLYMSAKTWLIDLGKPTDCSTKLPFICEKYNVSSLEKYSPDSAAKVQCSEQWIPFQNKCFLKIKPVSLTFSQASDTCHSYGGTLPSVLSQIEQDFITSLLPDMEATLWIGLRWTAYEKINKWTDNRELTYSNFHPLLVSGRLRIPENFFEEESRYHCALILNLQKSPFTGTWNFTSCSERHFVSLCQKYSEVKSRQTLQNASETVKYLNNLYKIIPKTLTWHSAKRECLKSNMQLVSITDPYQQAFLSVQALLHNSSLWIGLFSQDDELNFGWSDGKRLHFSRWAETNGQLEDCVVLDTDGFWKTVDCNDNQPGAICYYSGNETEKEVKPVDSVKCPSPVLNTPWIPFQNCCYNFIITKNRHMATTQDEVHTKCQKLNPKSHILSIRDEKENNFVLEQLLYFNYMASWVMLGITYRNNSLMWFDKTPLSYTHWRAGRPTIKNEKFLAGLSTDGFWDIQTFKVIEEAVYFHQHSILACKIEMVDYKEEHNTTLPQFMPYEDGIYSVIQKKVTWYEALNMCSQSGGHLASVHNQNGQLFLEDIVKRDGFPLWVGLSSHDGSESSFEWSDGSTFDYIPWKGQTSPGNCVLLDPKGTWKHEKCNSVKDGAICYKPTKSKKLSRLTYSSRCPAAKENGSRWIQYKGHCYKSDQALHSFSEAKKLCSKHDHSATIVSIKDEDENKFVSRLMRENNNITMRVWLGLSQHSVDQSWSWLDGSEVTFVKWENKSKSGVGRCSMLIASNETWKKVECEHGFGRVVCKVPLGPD
Assay: SPR (Biacore 2000), DEC-205 fusion protein amine-coupled to CM5 chip, antibody flowed at 1.25-200 nM, 1:1 Langmuir fit, mean of two series
Excerpt: Low levels of ligand were immobilised to limit any effects of mass transport of analyte on kinetic parameters, such that the RMAX observed was in the order of 200 RU. The antigen-antibody association and dissociation kinetics were followed for approximately 300 to 600 seconds in each case. Biacore's kinetics wizard was used in each case to derive kinetic parameters from the concentration series of analyte diluted in HBS-NP running buffer. […]
observed-property: kon (M⁻¹ s⁻¹)
Write the number in M⁻¹ s⁻¹ without appending the unit.

| binder | kon [M⁻¹ s⁻¹] |
| --- | --- |
| 3D6-2F4 (antibody, V domains shown, Human IgG (kappa) from a hybridoma, protein A purified; also called mAb #5; HuMab 3D6-2F4) VH: QVQLVESGGGVVQPGRSLRLSCAASGFIFSIYGMHWVRQAPGKGLEWVAVIWYDGSNKYYADSVKGRFTISRDNSKNTLYLQMNSLRAEDTAVYYCARAPHFDYWGQGTLVTVSS VL: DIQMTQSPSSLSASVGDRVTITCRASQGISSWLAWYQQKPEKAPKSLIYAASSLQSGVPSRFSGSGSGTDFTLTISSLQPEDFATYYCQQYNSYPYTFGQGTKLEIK | 1.8e+06 |
| 3C7-3A3 (antibody, V domains shown, Human IgG (kappa) from a hybridoma, protein A purified; also called mAb #3; HuMab 3C7-3A3) VH: QVQLVESGGGVVQPGRSLRLSCAASGFTFSSYNMHWVRQAPGKGLEWVAFIWYDGSNKYYGDSVKGRFTISRDNSKNTLYLQMNSLRAEDTAVYYCAREELGIGWYFDLWGRGTLVTVSS VL: EIVLTQSPATLSLSPGERATLSCRASQSVSSYLAWYQQKPGQAPRLLIYDASNRATGIPARFSGSGSGTDFTLTISSLEPEDFAVYYCQQRRTFGQGTKVEIK | 170000 |

# context switch: different binder, same kon
(Q) Look up and report measured kon for this entry: 3G9-2D2 (antibody, V domains shown, Human IgG (kappa) from a hybridoma, protein A purified; also called mAb #8; HuMab 3G9-2D2) VH: QVQLVESGGGVVQPGRSLRLSCAASGFTFSNYGMYWVRQAPGKGLEWVAVIWYDGSNKYYADSVKGRFTISRDNSKNTLYLQMNSLRAEDTAVYYCARDLWGWYFDYWGQGTLVTVSS VL: EIVLTQSPATLSLSPGERATLSCRASQSVSSYLAWYQQKPGQAPRLLIYDASNRATGIPARFSGSGSGTDFTLTISSLEPEDFAVYYCQQRRNWPLTFGGGTKVEIK
(A) 900000
